Where these numbers come from: ChEMBL document CHEMBL4680236

MBC overview
- Tested on: Staphylococcus aureus
- Method description: Bactericidal activity against MLSB/methicillin-resistant Staphylococcus aureus 15B196
- Type: functional

CC[C@H]1OC(=O)[C@H](C)[C@@H](OC(=O)Cc2ccccn2)[C@H](C)[C@@H](O[C@@H]2O[C@H](C)C[C@H](N(C)C)[C@H]2O)[C@](C)(OC(=O)CCNCCC#Cc2ccc3c(c2)c(=O)c(C(=O)O)cn3C2CC2)C[C@@H](C)CN(C)[C@H](C)[C@@H](O)[C@]1(C)O : > 256 µg/mL
CC[C@H]1OC(=O)[C@H](C)[C@@H](OC(=O)Cc2ccccn2)[C@H](C)[C@@H](O[C@@H]2O[C@H](C)C[C@H](N(C)C)[C@H]2O)[C@](C)(OC(=O)CCN2CCN(c3cc4c(cc3F)c(=O)c(C(N)=O)cn4CC)CC2)C[C@@H](C)CN(C)[C@H](C)[C@@H](O)[C@]1(C)O : 128 µg/mL
CC[C@H]1OC(=O)[C@H](C)[C@@H](OC(=O)Cc2ccccn2)[C@H](C)[C@@H](O[C@@H]2O[C@H](C)C[C@H](N(C)C)[C@H]2O)[C@](C)(OC(=O)CCNCCC#Cc2ccc3c(c2)c(=O)c(C(N)=O)cn3C)C[C@@H](C)CN(C)[C@H](C)[C@@H](O)[C@]1(C)O : > 256 µg/mL
CC[C@H]1OC(=O)[C@H](C)[C@@H](OC(=O)Cc2cccnc2)[C@H](C)[C@@H](O[C@@H]2O[C@H](C)C[C@H](N(C)C)[C@H]2O)[C@](C)(OC(=O)CCNCCC#Cc2ccc3c(c2)c(=O)c(C(N)=O)cn3C2CC2)C[C@@H](C)CN(C)[C@H](C)[C@H]2OC(=O)O[C@@]21C : > 256 µg/mL
CC[C@H]1OC(=O)[C@H](C)[C@@H](OC(=O)Cc2cccnc2)[C@H](C)[C@@H](O[C@@H]2O[C@H](C)C[C@H](N(C)C)[C@H]2O)[C@](C)(OC(=O)CCNCCC#Cc2ccc3c(c2)c(=O)c(C(=O)O)cn3C2CC2)C[C@@H](C)CN(C)[C@H](C)[C@H]2OC(=O)O[C@@]21C : > 256 µg/mL

Ask: Reported MBC for `CC[C@H]1OC(=O)[C@H](C)[C@@H](OC(=O)Cc2ccccn2)[C@H](C)[C@@H](O[C@@H]2O[C@H](C)C[C@H](N(C)C)[C@H]2O)[C@](C)(OC(=O)CCNCCC#Cc2ccc3c(c2)c(=O)c(C(=O)O)cn3C2CC2)C[C@@H](C)CN(C)[C@H](C)[C@H]2OC(=O)O[C@@]21C` : what is it?
Result: > 256 µg/mL

Ask: Reported MBC for `CC[C@H]1OC(=O)[C@H](C)[C@@H](OC(=O)Cc2ccccn2)[C@H](C)[C@@H](O[C@@H]2O[C@H](C)C[C@H](N(C)C)[C@H]2O)[C@](C)(OC(=O)CCNCCC#Cc2ccc3ncccc3c2)C[C@@H](C)CN(C)[C@H](C)[C@@H](O)[C@]1(C)O` : what is it?
Result: > 256 µg/mL

Ask: Reported MBC for O=C(O)c1cn(C2CC2)c2cc(N3CCNCC3)c(F)cc2c1=O [CIPROFLOXACIN] : what is it?
Result: 0.5 µg/mL
